- systemUnderTest: Shiga toxin 2 (Escherichia coli O157:H7) (UniProt P09385+P09386)
- testDescription: E. coli 0.157:H7 Shiga Toxin SOP - stx2 screening assay
- Type: functional
- Design: scale not given: direction of the effect not stated beside the values
- testConditions: 30 µM
Would you kindly list Percent Effect for each of these compounds?
The reply should be a number in %, with the unit left off.

### Prompt Given the entry CC(C)c1ccc(OCCC(=O)N2CCC(CC(N)=O)CC2)cc1 , report its measured Percent Effect.
### Response 29.9

### Prompt Given the entry CC(C)c1nnc2n1CCN(C(=O)c1cccc(C(F)(F)F)c1)C2 , report its measured Percent Effect.
### Response -0.987

### Prompt Given the entry Cc1nn(CC(=O)N2CCCC2Cn2cccn2)c(C)c1Cl (configuration not stated) , report its measured Percent Effect.
### Response -3.65

### Prompt Given the entry Cc1ccccc1C1CCCN1C(=O)CN1CC2(CCNCC2)OC1=O (configuration not stated) , report its measured Percent Effect.
### Response 2.84

### Prompt Given the entry CN(Cc1cnccn1)C(=O)c1ccnc(OC2CCC2)c1 , report its measured Percent Effect.
### Response -6.19

### Prompt Given the entry Cc1ccc(S(=O)(=O)NC2CNC(=O)C2)cc1C (configuration not stated) , report its measured Percent Effect.
### Response 9.86

### Prompt Given the entry CNc1oc(-c2cc(S(=O)(=O)N3CCCCCC3)c(C)o2)nc1C#N , report its measured Percent Effect.
### Response -18.8

### Prompt Given the entry CC(NC(=O)NCCCn1ccnc1)c1ccc2c(c1)OCCCO2 (configuration not stated) , report its measured Percent Effect.
### Response 20.4

### Prompt Given the entry Cc1cccc(CN(Cc2ccc(C)o2)C2CC(C)(C)NC(C)(C)C2)n1 , report its measured Percent Effect.
### Response 3.65

### Prompt Given the entry Cc1nc(C)n(CC2CCCN(Cc3nnc(-c4ccco4)o3)C2)n1 (configuration not stated) , report its measured Percent Effect.
### Response -19.8

### Prompt Given the entry COCCN(Cc1ccc(F)cc1Cl)C(=O)c1cccc[n+]1[O-] , report its measured Percent Effect.
### Response 0.846

### Prompt Given the entry COc1ccc(OCCCNC(=O)NCc2csc(C)n2)cc1 , report its measured Percent Effect.
### Response -17

### Prompt Given the entry N#Cc1ccc(C(=O)N2CCn3c(Cn4cccn4)cnc3C2)cc1 , report its measured Percent Effect.
### Response 0.128

### Prompt Given the entry NC(=O)c1ccc(CN2CCCC(N3CCCC3)C2)cc1 (configuration not stated) , report its measured Percent Effect.
### Response -4.76

### Prompt Given the entry CCNc1cc2c(nn1)CCN(C(=O)c1ccc(CNC(C)=O)o1)C2 , report its measured Percent Effect.
### Response -44.4

### Prompt Given the entry Cc1cccnc1NC(=O)CSc1ccc2c(c1)OCCO2 , report its measured Percent Effect.
### Response -4.11

### Prompt Given the entry Cc1cn2c(n1)CCC(NC(=O)CCC(F)(F)F)C2 (configuration not stated) , report its measured Percent Effect.
### Response 5.05

### Prompt Given the entry Cc1nc(N2CCOCC2)nc2c1CN(C(=O)Cc1ccccn1)CC2 , report its measured Percent Effect.
### Response -57.2

### Prompt Given the entry Cc1nc(C2CCCN2Cc2nnc(C3CC3)o2)no1 (configuration not stated) , report its measured Percent Effect.
### Response 20

### Prompt Given the entry CC(C)CC1SCC(=O)Nc2c1cnn2C(C)C (configuration not stated) , report its measured Percent Effect.
### Response -18.7

### Prompt Given the entry O=C(NCC(F)(F)F)C1=NOC2(CCCNC2)C1 (configuration not stated) , report its measured Percent Effect.
### Response 13.8

### Prompt Given the entry COc1ccccc1OCC(=O)NS(=O)(=O)c1ccccc1F , report its measured Percent Effect.
### Response -7.18
